molecules and their reported log10 IC50
biological target: recombinant CaMKIIδ (Homo sapiens (Human)); assay: CaMKIIδ biochemical assay (HTRF); conditions: 10 pM CaMKIIδ, 110 nM calmodulin, 12 μM ATP, 1 hour; read-out: CAMKIID-HTRF-384V2 (IC50 - nM)
Scale: decimal log of IC50, IC50 in nM.

Check out these entries, answers already filled in.
Q: Missing value: log10 IC50, recombinant CaMKIIδ (Homo sapiens (Human)), entry CN(C)c1cc(C(=O)N2CC[C@H](N)C2)cc(-c2cnn3ccc(-c4ccccc4)nc23)n1 [Example 125] . Fill in?
Result: 2.43

Q: Give recorded log10 IC50 with recombinant CaMKIIδ (Homo sapiens (Human)) for the following molecule: CCN(CC)[C@@H](C)CNC(=O)c1cc(-c2cnn3ccc(-c4cccs4)nc23)nc(N2CC(NC(=O)c3ncco3)C2)c1 [Example 194]
Result: -0.72

***
Q: Param readout = log10 IC50; param system = recombinant CaMKIIδ (Homo sapiens (Human)); param query = COCCNc1cc(C(=O)N2CC3CCC(C2)NC3)cc(-c2cnn3ccc(-c4cccs4)nc23)n1 (centres unmarked) [Example 323] ; response: value
Result: 0.51

Q: # value lookup — system recombinant CaMKIIδ (Homo sapiens (Human)), readout log10 IC50, item CCN(CC)[C@@H](C)CNC(=O)c1cc(-c2cnn3ccc(-c4cccs4)nc23)nc(N2CC(S(=O)(=O)NC3CC3)C2)c1 [Example 151]
Result: -0.49

Q: Given the entry CCN(CC)[C@@H](C)CNC(=O)c1cc(-c2cnn3ccc(-c4cccs4)nc23)nc(N2CC(NC(C)=O)C2)c1 [Example 198] , what log10 IC50 was observed with recombinant CaMKIIδ (Homo sapiens (Human))?
Result: -0.82
